src = patent US12083137B2

Biological target: FDPS (Homo sapiens (Human), UniProt P14324)
Sequence (P14324 whole entry, species assumed): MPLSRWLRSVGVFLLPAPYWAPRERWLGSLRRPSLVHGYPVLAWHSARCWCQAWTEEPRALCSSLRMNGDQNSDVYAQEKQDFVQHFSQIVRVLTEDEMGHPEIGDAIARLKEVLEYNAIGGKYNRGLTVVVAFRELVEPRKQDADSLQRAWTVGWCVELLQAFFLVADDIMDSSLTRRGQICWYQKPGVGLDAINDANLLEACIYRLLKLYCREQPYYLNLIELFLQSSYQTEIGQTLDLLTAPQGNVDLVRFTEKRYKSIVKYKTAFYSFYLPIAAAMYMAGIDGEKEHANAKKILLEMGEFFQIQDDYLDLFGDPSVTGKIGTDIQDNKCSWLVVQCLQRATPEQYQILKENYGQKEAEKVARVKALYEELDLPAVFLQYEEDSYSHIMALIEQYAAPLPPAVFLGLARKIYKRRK
Experiment: FDPS enzyme assay
Assay type: biochemical
Conditions: read-out: FDPS IC50
Protocol: FIG. 9 GGDPS and FDPS enzyme assay data for compounds 19, 20, and 21. Each assay was performed in three independent experiments (R1, R2, R3) and each compound was tested in duplicate at each concentration. Each assay was performed in three independent experiments (R1, R2, R3) and each compound was tested in duplicate at each concentration.
Reported pIC50 by item:
Scale note: pIC50 = -log10(concentration in M).

These solved cases illustrate the format of a correct answer.
given_smiles=CC(C)=CCC/C(C)=C\Cn1cc(CC(C)(P(=O)([O-])[O-])P(=O)([O-])[O-])nn1.[Na+].[Na+].[Na+].[Na+] value_observed=4.22
given_smiles=CCC(Cc1cn(C/C=C(\C)CCC=C(C)C)nn1)(P(=O)(O)O)P(=O)(O)O value_observed=4.03
given_smiles=CC(C)=CCC/C(C)=C/Cn1cc(CC(C)(P(=O)([O-])[O-])P(=O)([O-])[O-])nn1.[Na+].[Na+].[Na+].[Na+] value_observed=4.37

--- query ---
Log: FDPS (Homo sapiens (Human), UniProt P14324), compound `CC(C)=CCCC(C)=CCn1cc(CC(C)(P(=O)([O-])[O-])P(=O)([O-])[O-])nn1.[Na+].[Na+].[Na+].[Na+]` , pIC50 = 4.62

###

biological target: Recombinant GGDPS (Homo sapiens (Human), UniProt O95749); test: GGDPS enzyme assay; format: biochemical
Sequence (O95749 whole entry): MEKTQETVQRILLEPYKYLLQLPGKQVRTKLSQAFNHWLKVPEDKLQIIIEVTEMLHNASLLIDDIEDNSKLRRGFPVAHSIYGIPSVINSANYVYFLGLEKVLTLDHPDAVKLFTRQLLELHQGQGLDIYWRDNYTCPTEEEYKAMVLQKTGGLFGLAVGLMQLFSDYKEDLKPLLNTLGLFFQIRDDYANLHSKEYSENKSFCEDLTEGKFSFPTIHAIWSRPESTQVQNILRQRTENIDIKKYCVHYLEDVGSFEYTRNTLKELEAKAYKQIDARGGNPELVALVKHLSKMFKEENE
Parameter measured: IC50 (nM)
Answer format: numeric, nM implied, no suffix.

These solved cases illustrate the format of a correct answer.
given_smiles=CC(C)=CCC/C(C)=C\CCn1cc(CC(C)(P(=O)([O-])[O-])P(=O)([O-])[O-])nn1.[Na+].[Na+].[Na+].[Na+] value_observed=920
given_smiles=CC(C)=CCC/C(C)=C/CCn1cc(CC(C)(P(=O)([O-])[O-])P(=O)([O-])[O-])nn1.[Na+].[Na+].[Na+].[Na+] value_observed=20500

Measured IC50 of `CC(C)=CCCC(C)=CCCn1cc(CC(C)(P(=O)([O-])[O-])P(=O)([O-])[O-])nn1.[Na+].[Na+].[Na+].[Na+]` : 1270

###

molecular target: FDPS (Homo sapiens (Human)); test: FDPS enzyme assay; type: biochemical
Parameter measured: pIC50
Scale note: pIC50 = -log10(concentration in M).

Measured pIC50 of `CC(C)=CCCC(C)=CCCn1cc(CC(C)(P(=O)([O-])[O-])P(=O)([O-])[O-])nn1.[Na+].[Na+].[Na+].[Na+]` : 4.21

Measured pIC50 of `CC(C)=CCC/C(C)=C/CCn1cc(CC(C)(P(=O)([O-])[O-])P(=O)([O-])[O-])nn1.[Na+].[Na+].[Na+].[Na+]` : 4.15

###

target: Recombinant GGDPS (Homo sapiens (Human), UniProt O95749); assay: GGDPS enzyme assay; assay type: biochemical; conditions: 20 nM recombinant GGDPS, 10 μM FPP, 10 μM [14C]-IPP, 37° C. 30 minutes; read-out: GGDPS IC50
Parameter measured: IC50 (nM)
Answer format: numeric, nM implied, no suffix.

compound="CC(C)=CCC/C(C)=C/Cn1cc(CC(C)(P(=O)([O-])[O-])P(=O)([O-])[O-])nn1.[Na+].[Na+].[Na+].[Na+] [Compound 21]" target_or_system="Recombinant GGDPS (Homo sapiens (Human), UniProt O95749)" value_observed=125

Measured IC50 of CCC(Cc1cn(C/C=C(\C)CCC=C(C)C)nn1)(P(=O)(O)O)P(=O)(O)O [Compound 28] : 5850

Measured IC50 of CC(C)=CCC/C(C)=C\Cn1cc(CC(C)(P(=O)([O-])[O-])P(=O)([O-])[O-])nn1.[Na+].[Na+].[Na+].[Na+] [Compound 20] : 86

Measured IC50 of CC(C)=CCCC(C)=CCn1cc(CC(C)(P(=O)([O-])[O-])P(=O)([O-])[O-])nn1.[Na+].[Na+].[Na+].[Na+] [Compound 19] : 100
